- testedSystem: human B7-H3 (human) (UniProt Q5ZPR3)
- runDescription: flow cytometry (FACS) on CHO-K1/B7-H3 cells
readoutKind: EC50
Note: a bare number is incomplete; add the unit.

stdin: Which EC50 reading was recorded for the binder 47F3F10B4 (antibody, V domains shown) VH: EVQLQQSGPELVKPGASVKMSCKASGYTFTDHYMHWVKQSHGKSLEWIGYIFPNNGVSGYNQNFKDKATLTVDKSSSTAYMDLRSLTPEDSAVYYCTRRQLGLGTMDYWGQGTSVTVSS VL: DIVLTQSPASLAVSLGQRATISCRASKSVSTSGYNYMHWYQQKPGQPPKLLIYLASNLESGVPARFSGSGSGTDFTLNIHPVEEEDAATYYCQHSKELPWTFGGGTKLEIK ?
stdout: 0.751 nM

stdin: Which EC50 reading was recorded for the binder 38D6A4 (antibody, V domains shown) VH: QIQLVQSGPELKKPGEAVKISCKASGSTFTDFGMNWVRQAPGKGLKWMGWINPYSGVPTYADEFKGRFVFSLETSARVAYMQINDLKNEDTATYFCARDDGYHYTMDYWGQGTSVTVSS VL: DVVMTQTPLPLPVSLGDQASISCRSSQSLIHSNGITYLHWYLQKPGQSPKLLIYKVSNRFSGVPDRFTGSGSGTDFTLKISRVEAEDLGVYFCSQSTHVPWTFGGGSKLEIR ?
stdout: 1.78 nM
